Recorded growth inhibition, one value per entry.
Assay: NCI Yeast Anticancer Drug Screen. Data for the bub3 strain (AID 167)
Details: S. cerevisiae bub3 mutant strain, at 50.0 µM, active compounds read high
The panel holds about 79,000 compounds, 15% with a hit somewhere; the sample as a whole holds those more often. Where a SMILES comes first, the peptide text is derived from it. The star is where a group is joined. Cbz = O=C(OCc1ccccc1)*
readout kind: growth inhibition (%)

CCc1c2cc(OC)c(OC)cc2cc2c3cc(OC)c(OC)cc3cc[n+]12 (tested in a mixture with another compound) :: -42
O=C1COCCO1 :: -6.55
CC(C)C(C)(O)C#CC(C)(O)C(C)C (stereo not drawn) :: 23.9
N#CCCCO :: 0.3
Cc1onc(-c2ccc(-c3noc(C)c3C(=O)O)cc2)c1C(=O)O :: -10.4
CCCCC1(C(=O)NC(=Nc2ccccc2)Nc2ccccc2)CCOC1=O (stereo not drawn) :: -2.95
CCOCC(C)(CO)CC(C)CO (stereo not drawn) :: -4.55
CC(=O)NC1=C/C(=C/COC(C)=O)OC1=O :: 5.8
O=C(OCCN=C1c2ccccc2CCc2ccccc21)c1ccccc1 :: 37.3
CNc1cccc2c1C(C)C[C@]1(C)C(=O)Nc3ccccc3[C@H]21 (stereo partly drawn) :: -35.8
Cc1ccc2[nH]c(-c3ccccc3)cc2c1 :: -8.15
S=C=NCCCCCCCCCCCCN=C=S :: 89.7
C#CCOCCCC(=O)O :: 16.2
COc1ccc(C2SC(N)=Nc3c2c(C)nn3C(=O)c2ccc(Cl)cc2)cc1 (stereo not drawn) :: -11.3
CN(C)CCNc1nnc(NCCN(C)C)c2cc3ccccc3cc12 :: -1.4
COC(=O)c1ccccc1NC(=O)C1CCCCC1=O (stereo not drawn) :: 12.3
NC(=O)CNC(=O)[C@@H]1C[C@@H](OCCC(=O)O)CN1C(=O)OCc1ccccc1 :: 14.5
CC(=O)OC1CCC2(C)C(=CCC3C2CCC2(C)C(/C(C)=N/NC(N)=O)CCC32)C1 (stereo not drawn) :: -0.6
CC(NC(=O)C(NC(=O)OCc1ccccc1)C(C)C)C(=O)NCC(=O)O (stereo not drawn) (Cbz-Val-Ala-Gly-OH; configuration not given here) :: 7.1
COc1cccc2c1oc(=O)c1ccccc12 :: -2.35
CC12CCCCC1C(C(C)(C)OC(=O)c1ccc([N+](=O)[O-])cc1)CC2 (stereo not drawn) :: 12.6
COc1cc(OC)c(N=Nc2c(O)n(C)c(=O)n(C)c2=O)cc1Cl :: 10.6
CCCC(=O)c1c(NOC2OCC(OC(C)=O)C(OC(C)=O)C2OC(C)=O)nc(OC)n(C)c1=O (stereo not drawn) :: -15.9

###

Assay: NCI Yeast Anticancer Drug Screen. Data for the bub3 strain (AID 167)
Details: S. cerevisiae bub3 mutant strain, at 50.0 µM, active compounds read high
Procedure: Growth inhibition of yeast strains with defined genetic alterations is measured as a screen for potential anti-cancer activity. Selected strains with alterations in DNA damage repair or cell cycle control were exposed to compounds and growth inhibition was measured relative to vehicle treated controls. The strain used in this assay is bub3
The panel holds about 79,000 compounds, 15% with a hit somewhere; the sample as a whole holds those more often.
Recorded growth inhibition, one value per entry.
readout kind: growth inhibition (%)

CCC(C)C(O)CC (configuration not stated) :: 7.6
O=[N+]([O-])c1ccc2c(Cl)c3ccccc3nc2c1 :: 34.2
Cc1cc(=O)[nH]c(Nc2nc3cc(C)c(C)cc3[nH]2)n1 :: -8.2
NC(=O)C(F)(F)c1ccccc1 :: 21.4
Cc1[nH]c2ccccc2c1C(c1cc(Cl)cc(Cl)c1O)c1c(C)[nH]c2ccccc12 :: -5.05
CC(O)C(C)C(N)C(=O)O (configuration not stated) :: -0.3
Cn1cnc2c(=O)[nH]cnc21 :: 14.7
